- testTarget: VEGF (soluble stimulus added to cell cultures)
- Sequence (P15692 whole entry): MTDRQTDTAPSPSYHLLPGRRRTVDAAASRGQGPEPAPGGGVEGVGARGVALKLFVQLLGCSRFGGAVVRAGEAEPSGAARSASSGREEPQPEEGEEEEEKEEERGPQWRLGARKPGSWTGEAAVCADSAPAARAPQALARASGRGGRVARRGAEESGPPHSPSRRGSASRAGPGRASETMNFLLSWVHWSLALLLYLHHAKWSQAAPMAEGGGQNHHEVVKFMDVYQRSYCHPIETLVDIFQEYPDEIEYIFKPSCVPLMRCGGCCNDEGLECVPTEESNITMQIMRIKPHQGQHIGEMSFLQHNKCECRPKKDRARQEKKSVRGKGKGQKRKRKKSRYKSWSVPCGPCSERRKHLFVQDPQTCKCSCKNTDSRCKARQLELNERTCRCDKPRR
- assay: cell-based or functional assay
recordedMetric: IC50, proliferation of HDMEC cells +VEGF (5 ng/ml)

Query block: Record request: IC50, proliferation of HDMEC cells +VEGF (5 ng/ml) value, item Nb-FF2 (VHH, Bivalent monospecific tandem VHH for bFGF; with c-myc and histidine tag) QVQLVESGGGLVQPGGSLRLSCAASGTEDGRLLTLGGSWFRQAPGQGLEAVAAIGAGDRGGATYYADSVKGRFTISRDNSKNTLYLQMNSLRAEDTAVYYCTALYERQPQLAATKVARKWGQGTLVTVSSAHHSEDPSSKAPKAPAQVQLVESGGGLVQPGGSLRLSCAASGTEDGRLLTLGGSWFRQAPGQGLEAVAAIGAGDRGGATYYADSVKGRFTISRDNSKNTLYLQMNSLRAEDTAVYYCTALYERQPQLAATKVARKWGQGTLVTVSSAAAGSEQKLISEEDLNSHHHHHH
Result block: > 6 µM

Reference for the values: patent US20250326826A1
